# METHOD NOTES: Inhibition of ROS generation in human PMN after 50 mins by luminol-based chemiluminescence assay
# Assay type: functional
Entries annotated with measured IC50
ASSAY METRIC: IC50 (µM)

CCc1c2cc(Cl)ccc2n2cc(Cc3ccccc3)[nH]c(=O)c12 :: 13.8
Cc1c2cc(Cl)ccc2n2cc(Cc3ccccc3)[nH]c(=O)c12 :: 1.48
CC(=O)Oc1ccccc1C(=O)O :: 9.78
O=c1[nH]c(Cc2ccccc2)cn2c1cc1cc(Cl)ccc12 :: 3.36
CCc1c2cc(C(F)(F)F)ccc2n2cc(Cc3ccccc3)[nH]c(=O)c12 :: 6.53
CCc1c2cc(Cl)ccc2n2cc(Cc3ccc(Cl)cc3)[nH]c(=O)c12 :: 7.77
CCc1c(C(=O)NC(CO)Cc2ccc(Cl)cc2)[nH]c2ccc(Cl)cc12 (stereo not given) :: 11.8
CCc1c(C(=O)NC(CO)Cc2ccccc2)[nH]c2ccc(Cl)cc12 (stereo not given) :: 13
CCc1c(C(=O)NC(CO)Cc2ccccc2)[nH]c2ccc(C(F)(F)F)cc12 (stereo not given) :: 9.7
Cc1c(C(=O)NC(CO)Cc2ccccc2)[nH]c2ccc(Cl)cc12 (stereo not given) :: 5.91
O=C(NC(CO)Cc1ccccc1)c1cc2ccccc2[nH]1 (stereo not given) :: 23.1
CCc1c2cc(Br)ccc2n2cc(Cc3ccccc3)[nH]c(=O)c12 :: 6.44
O=c1[nH]c(Cc2ccccc2)cn2c1cc1ccccc12 :: 19
O=C(NC(CO)Cc1ccccc1)c1cc2cc(Cl)ccc2[nH]1 (stereo not given) :: 11.3
CCc1c(C(=O)NC(CO)Cc2ccccc2)[nH]c2ccc(Br)cc12 (stereo not given) :: 10.6

----------
# METHOD NOTES: Cytotoxicity against human MCF10A cells assessed as cell viability at 50 uM after 96 hrs by MTT assay relative to control
# Type: cell-based, MCF-10A
# TEST CONTEXT: read-out: Activity
ASSAY METRIC: viability at 96 h, 50 µM (%)

CCc1c(C(=O)NC(CO)Cc2ccccc2)[nH]c2ccc(C(F)(F)F)cc12 (stereo unspecified) :: 80
O=c1[nH]c(Cc2ccccc2)cn2c1cc1cc(Cl)ccc12 :: 89
O=C(NC(CO)Cc1ccccc1)c1cc2ccccc2[nH]1 (stereo unspecified) :: 96
CCc1c(C(=O)NC(CO)Cc2ccc(Cl)cc2)[nH]c2ccc(Cl)cc12 (stereo unspecified) :: 92
CCc1c2cc(Cl)ccc2n2cc(Cc3ccccc3)[nH]c(=O)c12 :: 89
Cc1c2cc(Cl)ccc2n2cc(Cc3ccccc3)[nH]c(=O)c12 :: 91

----------
# Test system: A549
# METHOD NOTES: Antiproliferative activity human A549 cells after 48 hrs by propidium iodide staining-based fluorescence assay
# Type: functional, cell-based
# TEST CONTEXT: A549, 48 h
ASSAY METRIC: log10(IC50) (log10 of the value in µM)

O=c1[nH]c(Cc2ccccc2)cn2c1cc1ccccc12 :: 1.17
CCc1c2cc(Cl)ccc2n2cc(Cc3ccc(Cl)cc3)[nH]c(=O)c12 :: 1.45
O=C(NC(CO)Cc1ccccc1)c1cc2cc(Cl)ccc2[nH]1 (stereo not drawn) :: 0.28
Cc1c2cc(Cl)ccc2n2cc(Cc3ccccc3)[nH]c(=O)c12 :: -0.10
O=c1[nH]c(Cc2ccccc2)cn2c1cc1cc(Cl)ccc12 :: 0.08
CCc1c2cc(Br)ccc2n2cc(Cc3ccccc3)[nH]c(=O)c12 :: 0.65
CCc1c(C(=O)NC(CO)Cc2ccccc2)[nH]c2ccc(Br)cc12 (stereo not drawn) :: 0.68
CCc1c(C(=O)NC(CO)Cc2ccccc2)[nH]c2ccc(Cl)cc12 (stereo not drawn) :: 1.06

----------
# Tested on: A549
# METHOD NOTES: Antiproliferative activity human A549 cells after 48 hrs by propidium iodide staining-based fluorescence assay
# Type: functional, cell-based
# TEST CONTEXT: A549, 48 h
Friendly reminder: IC50 below 2 µM is 1, at or above is -1.

CCc1c(C(=O)NC(CO)Cc2ccccc2)[nH]c2ccc(C(F)(F)F)cc12 (stereo unspecified) :: 1
CCc1c(C(=O)NC(CO)Cc2ccc(Cl)cc2)[nH]c2ccc(Cl)cc12 (stereo unspecified) :: -1
CCc1c2cc(C(F)(F)F)ccc2n2cc(Cc3ccccc3)[nH]c(=O)c12 :: 1
Cc1c(C(=O)NC(CO)Cc2ccccc2)[nH]c2ccc(Cl)cc12 (stereo unspecified) :: -1
O=C(NC(CO)Cc1ccccc1)c1cc2ccccc2[nH]1 (stereo unspecified) :: -1
CCc1c2cc(Cl)ccc2n2cc(Cc3ccccc3)[nH]c(=O)c12 :: -1

----------
Entries annotated with measured viability at 96 h, 50 µM
# METHOD NOTES: Cytotoxicity against human MCF10A cells assessed as cell viability at 50 uM after 96 hrs by MTT assay relative to control
# Assay type: cell-based, MCF-10A
# TEST CONTEXT: read-out: Activity
ASSAY METRIC: viability at 96 h, 50 µM (%)

CCc1c(C(=O)NC(CO)Cc2ccccc2)[nH]c2ccc(Br)cc12 (stereo not drawn) :: 85
CCc1c2cc(Cl)ccc2n2cc(Cc3ccc(Cl)cc3)[nH]c(=O)c12 :: 90
O=c1[nH]c(Cc2ccccc2)cn2c1cc1ccccc12 :: 92
CCc1c2cc(Br)ccc2n2cc(Cc3ccccc3)[nH]c(=O)c12 :: 82
CCc1c2cc(C(F)(F)F)ccc2n2cc(Cc3ccccc3)[nH]c(=O)c12 :: 79
Cc1c(C(=O)NC(CO)Cc2ccccc2)[nH]c2ccc(Cl)cc12 (stereo not drawn) :: 90
O=C(NC(CO)Cc1ccccc1)c1cc2cc(Cl)ccc2[nH]1 (stereo not drawn) :: 89
CCc1c(C(=O)NC(CO)Cc2ccccc2)[nH]c2ccc(Cl)cc12 (stereo not drawn) :: 87

----------
# TEST TARGET: Epidermal growth factor receptor (Homo sapiens)
# Sequence (P00533 whole entry): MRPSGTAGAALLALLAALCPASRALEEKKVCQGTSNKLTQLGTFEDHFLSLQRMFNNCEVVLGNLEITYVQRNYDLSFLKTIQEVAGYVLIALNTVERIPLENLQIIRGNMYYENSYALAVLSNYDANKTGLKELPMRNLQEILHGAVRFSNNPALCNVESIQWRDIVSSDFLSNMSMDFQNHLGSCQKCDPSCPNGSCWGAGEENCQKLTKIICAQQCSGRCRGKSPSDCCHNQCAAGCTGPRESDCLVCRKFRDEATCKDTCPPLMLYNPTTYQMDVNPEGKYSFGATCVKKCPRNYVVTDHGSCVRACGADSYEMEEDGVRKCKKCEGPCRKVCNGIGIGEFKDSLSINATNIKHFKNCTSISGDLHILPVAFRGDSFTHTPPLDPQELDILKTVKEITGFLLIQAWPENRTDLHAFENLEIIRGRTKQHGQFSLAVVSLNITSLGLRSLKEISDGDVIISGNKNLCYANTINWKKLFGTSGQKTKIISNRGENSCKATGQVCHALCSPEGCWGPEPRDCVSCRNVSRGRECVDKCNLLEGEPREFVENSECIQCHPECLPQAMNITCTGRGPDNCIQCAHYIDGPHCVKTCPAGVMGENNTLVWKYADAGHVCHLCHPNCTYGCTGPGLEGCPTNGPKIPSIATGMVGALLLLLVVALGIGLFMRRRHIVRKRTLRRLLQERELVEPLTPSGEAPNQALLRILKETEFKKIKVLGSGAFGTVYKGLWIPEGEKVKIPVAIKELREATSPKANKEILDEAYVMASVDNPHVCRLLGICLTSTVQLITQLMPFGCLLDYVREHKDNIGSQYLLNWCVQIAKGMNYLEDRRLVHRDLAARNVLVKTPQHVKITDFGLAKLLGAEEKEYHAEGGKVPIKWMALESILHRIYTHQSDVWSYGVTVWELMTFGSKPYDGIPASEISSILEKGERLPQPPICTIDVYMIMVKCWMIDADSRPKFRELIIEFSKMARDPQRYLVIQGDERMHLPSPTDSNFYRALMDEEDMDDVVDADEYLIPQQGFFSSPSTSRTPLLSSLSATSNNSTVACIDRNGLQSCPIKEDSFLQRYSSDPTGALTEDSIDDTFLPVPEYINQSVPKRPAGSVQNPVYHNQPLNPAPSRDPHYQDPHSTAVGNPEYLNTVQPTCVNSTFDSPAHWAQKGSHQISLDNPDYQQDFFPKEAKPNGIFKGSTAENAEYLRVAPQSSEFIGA
ASSAY METRIC: IC50 (µM)

CCc1c2cc(C(F)(F)F)ccc2n2cc(Cc3ccccc3)[nH]c(=O)c12 :: 3.9

----------
# METHOD NOTES: Inhibition of ROS generation in human PMN at 1.56 ug/ml after 50 mins by luminol-based chemiluminescence assay relative to control
# Format: functional
Entries annotated with measured inhibition at 1.56 µg/mL
ASSAY METRIC: inhibition at 1.56 µg/mL

CCc1c2cc(Cl)ccc2n2cc(Cc3ccc(Cl)cc3)[nH]c(=O)c12 :: 37%
O=c1[nH]c(Cc2ccccc2)cn2c1cc1cc(Cl)ccc12 :: 55%
CCc1c(C(=O)NC(CO)Cc2ccc(Cl)cc2)[nH]c2ccc(Cl)cc12 (stereo unspecified) :: 28%
CC(=O)Oc1ccccc1C(=O)O :: 46%
CCc1c(C(=O)NC(CO)Cc2ccccc2)[nH]c2ccc(C(F)(F)F)cc12 (stereo unspecified) :: 31%
CCc1c2cc(C(F)(F)F)ccc2n2cc(Cc3ccccc3)[nH]c(=O)c12 :: 42%
CCc1c2cc(Br)ccc2n2cc(Cc3ccccc3)[nH]c(=O)c12 :: 44%
O=c1[nH]c(Cc2ccccc2)cn2c1cc1ccccc12 :: 27%
CCc1c(C(=O)NC(CO)Cc2ccccc2)[nH]c2ccc(Cl)cc12 (stereo unspecified) :: 31%
CCc1c2cc(Cl)ccc2n2cc(Cc3ccccc3)[nH]c(=O)c12 :: 27%
O=C(NC(CO)Cc1ccccc1)c1cc2cc(Cl)ccc2[nH]1 (stereo unspecified) :: 33%

----------
# TEST TARGET: Tubulin (Homo sapiens) (UniProt P68371+Q9H4B7+P0DPH7+P68366+Q13509+Q71U36+P04350+Q3ZCM7+P07437+P68363+Q9BQE3+Q6PEY2+Q13885+Q9BVA1+Q9BUF5)
# METHOD NOTES: Inhibition of tubulin (unknown origin) polymerization assessed as tubulin assembly rate by fluorescence assay
# Type: protein-complex assay
ASSAY METRIC: Activity (a.u.)

O=c1[nH]c(Cc2ccccc2)cn2c1cc1cc(Cl)ccc12 :: 930
Cc1c(C(=O)NC(CO)Cc2ccccc2)[nH]c2ccc(Cl)cc12 (stereo unspecified) :: 2570
CCc1c(C(=O)NC(CO)Cc2ccccc2)[nH]c2ccc(C(F)(F)F)cc12 (stereo unspecified) :: 2650
CCc1c2cc(C(F)(F)F)ccc2n2cc(Cc3ccccc3)[nH]c(=O)c12 :: 1920
O=C(NC(CO)Cc1ccccc1)c1cc2cc(Cl)ccc2[nH]1 (stereo unspecified) :: 2420
Cc1c2cc(Cl)ccc2n2cc(Cc3ccccc3)[nH]c(=O)c12 :: 650

----------
# TEST TARGET: Serine/threonine-protein kinase B-raf (Mus musculus, UniProt P28028, V600E)
# Sequence (P28028 whole entry, looked up, stated change not applied): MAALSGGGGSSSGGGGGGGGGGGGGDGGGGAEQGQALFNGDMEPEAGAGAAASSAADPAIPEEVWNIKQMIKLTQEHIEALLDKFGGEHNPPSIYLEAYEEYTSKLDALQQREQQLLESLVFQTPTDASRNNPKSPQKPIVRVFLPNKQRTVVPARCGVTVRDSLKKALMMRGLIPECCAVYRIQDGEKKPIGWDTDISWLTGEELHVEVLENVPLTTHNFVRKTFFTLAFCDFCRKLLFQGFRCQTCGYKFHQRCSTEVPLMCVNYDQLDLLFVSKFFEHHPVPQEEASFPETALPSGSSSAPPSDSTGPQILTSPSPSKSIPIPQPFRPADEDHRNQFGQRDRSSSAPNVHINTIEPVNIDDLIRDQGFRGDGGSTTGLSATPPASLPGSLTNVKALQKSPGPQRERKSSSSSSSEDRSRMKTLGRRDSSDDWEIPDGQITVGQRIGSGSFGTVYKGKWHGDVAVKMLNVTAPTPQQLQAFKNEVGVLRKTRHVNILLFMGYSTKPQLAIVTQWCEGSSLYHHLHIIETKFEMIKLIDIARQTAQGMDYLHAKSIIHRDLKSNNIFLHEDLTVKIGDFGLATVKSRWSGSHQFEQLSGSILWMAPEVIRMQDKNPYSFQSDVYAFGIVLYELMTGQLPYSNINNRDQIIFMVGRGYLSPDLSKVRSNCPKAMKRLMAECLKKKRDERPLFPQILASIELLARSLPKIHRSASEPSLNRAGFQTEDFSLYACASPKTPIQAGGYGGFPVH
# METHOD NOTES: Inhibition of mouse full-length GST-tagged BRAF V600E mutant using recombinant human full length N-terminal His-tagged MEK1 as substrate preincubated for 60 mins followed by substrate addition and measured after 25 mins by ELISA
Friendly reminder: IC50 below 1 µM is Yes, at or above is No.

O=C(NC(CO)Cc1ccccc1)c1cc2cc(Cl)ccc2[nH]1 (stereo unspecified) :: No
Cc1c2cc(Cl)ccc2n2cc(Cc3ccccc3)[nH]c(=O)c12 :: Yes
CCc1c2cc(C(F)(F)F)ccc2n2cc(Cc3ccccc3)[nH]c(=O)c12 :: Yes
Cc1c(C(=O)NC(CO)Cc2ccccc2)[nH]c2ccc(Cl)cc12 (stereo unspecified) :: No

Data provenance: ChEMBL document CHEMBL4196002
